# System: SW480
# Method notes: Cytotoxicity against human SW480 cells at 100 uM after 72 hrs by MTT assay
# Format: functional
# Condition parameters: SW480, 72 h
molecules and their reported inhibition at 100 µM

Molecule	Study system	inhibition at 100 µM
NCCCC[C@@H](C(=O)O)N1C(=O)[C@H]2CSC[C@H]2C1=O	SW480	< 10%
CCOC(=O)C[C@@H](C(=O)OCC)N1C(=O)[C@H]2COC[C@H]2C1=O	SW480	< 10%
O=C1[C@H]2CN(Cc3ccccc3)C[C@H]2C(=O)N1CCN1CCOCC1	SW480	49%
CC(CO)N1C(=O)[C@H]2CNC[C@H]2C1=O (stereo partly drawn)	SW480	< 10%
CCC(CO)N1C(=O)[C@H]2CNC[C@H]2C1=O (stereo partly drawn)	SW480	< 10%
NCCC[C@@H](C(=O)O)N1C(=O)[C@H]2CNC[C@H]2C1=O	SW480	11%
O=C(O)[C@H](Cc1c[nH]cn1)N1C(=O)[C@H]2CSC[C@H]2C1=O	SW480	< 10%
CCOC(=O)C[C@@H](C(=O)OCC)N1C(=O)[C@H]2CNC[C@H]2C1=O	SW480	< 10%
CCC(CO)N1C(=O)[C@H]2COC[C@H]2C1=O (stereo partly drawn)	SW480	< 10%
O=C(O)C[C@@H](C(=O)O)N1C(=O)[C@H]2COC[C@H]2C1=O	SW480	< 10%
CCOC(=O)CC[C@@H](C(=O)OCC)N1C(=O)[C@H]2COC[C@H]2C1=O	SW480	34%
CCC(CO)N1C(=O)[C@H]2CN(Cc3ccccc3)C[C@H]2C1=O (stereo partly drawn)	SW480	15%
O=C1[C@H]2COC[C@H]2C(=O)N1CCN1CCOCC1	SW480	< 10%
